The origin of these recorded values is patent US5618795A.

- Tested on: E. coli K-12 ML1629
- Test Protocol: MIC by standard serial dilution method on Muller-Hinton's agar
- Format: cell-based
- Particulars: Escherichia coli, K12ML1629; Table 3; 27° C., 18 hours; read-out: MIC
Property: MIC (µg/mL)
API: value field is a number in µg/mL; no unit string.

| Molecule | Tgt | MIC [µg/mL] |
| --- | --- | --- |
| NC[C@@H]1CC[C@@H](N)[C@@H](O[C@H]2C[C@@H](O[C@H]3O[C@H](CO)[C@@H](O)[C@H](N)[C@H]3N)[C@H](N)C[C@@H]2N)O1 [Compound IIb, 2"-Amino-5,2"-dideoxydibekacin] | E. coli K-12 ML1629 | 6.25 |

Identify the measured MIC of NCC[C@H](O)C(=O)N[C@@H]1C[C@H](N)[C@@H](O[C@H]2O[C@H](CN)CC[C@H]2N)[C@H](O)[C@H]1O[C@H]1O[C@H](CO)[C@@H](O)[C@H](N)[C@H]1N [Compound Ia, 2"-Amino-2"-deoxyarbekacin] for E. coli K-12 ML1629.
3.13

Please give the result for NCC[C@H](O)C(=O)N[C@@H]1C[C@H](N)[C@@H](O[C@H]2O[C@H](CN)CC[C@H]2N)C[C@H]1O[C@H]1O[C@H](CO)[C@@H](O)[C@H](N)[C@H]1N [Compound Ib, 2"-Amino-5,2"-dideoxyarbekacin] too.
1.56

Note, next up: NC[C@@H]1CC[C@@H](N)[C@@H](O[C@H]2[C@H](O)[C@@H](O[C@H]3O[C@H](CO)[C@@H](O)[C@H](N)[C@H]3N)[C@H](N)C[C@@H]2N)O1 [Compound IIa, 2"-Amino-2"-deoxydibekacin]
3.13

----------
- Test Protocol: Acute toxicity, single intravenous administration to mice
- Type: in vivo
- Particulars: mouse, in vivo, iv
Property: LD50 at 336 h

LD50 at 336 h lookup needed for `NCC[C@H](O)C(=O)N[C@@H]1C[C@H](N)[C@@H](O[C@H]2O[C@H](CN)CC[C@H]2N)C[C@H]1O[C@H]1O[C@H](CO)[C@@H](O)[C@H](N)[C@H]1N` , thanks.
50 to 100 mg/kg

----------
- Tested on: P. aeruginosa TI-13
- Test Protocol: MIC by standard serial dilution method on Muller-Hinton's agar
- Assay type: cell-based
- Particulars: Pseudomonas aeruginosa, TI13, 18 h
Each record here notes measured MIC.
Give the number; µg/mL is assumed, so skip it.

Consider the worked cases shown below.
| Structure | Measured |
| --- | --- |
| NC[C@@H]1CC[C@@H](N)[C@@H](O[C@H]2[C@H](O)[C@@H](O[C@H]3O[C@H](CO)[C@@H](O)[C@H](N)[C@H]3N)[C@H](N)C[C@@H]2N)O1 | 3.13 |
| NCC[C@H](O)C(=O)N[C@@H]1C[C@H](N)[C@@H](O[C@H]2O[C@H](CN)CC[C@H]2N)[C@H](O)[C@H]1O[C@H]1O[C@H](CO)[C@@H](O)[C@H](N)[C@H]1N | 3.13 |
| NC[C@@H]1CC[C@@H](N)[C@@H](O[C@H]2C[C@@H](O[C@H]3O[C@H](CO)[C@@H](O)[C@H](N)[C@H]3N)[C@H](N)C[C@@H]2N)O1 | 3.13 |

The record that follows has no MIC shown yet.
Which MIC is reported for this compound? `NCC[C@H](O)C(=O)N[C@@H]1C[C@H](N)[C@@H](O[C@H]2O[C@H](CN)CC[C@H]2N)C[C@H]1O[C@H]1O[C@H](CO)[C@@H](O)[C@H](N)[C@H]1N`
1.56

----------
- Test Protocol: Acute toxicity, single intravenous administration to mice
- Type: in vivo
- Particulars: mouse, in vivo; single intravenous administration; mice (ICR-strain, 4 weeks old, female); observations for two weeks; read-out: LD50
We begin with a simple list: items and their reported LD50 at 336 h.

Example entries begin here.
| Structure | Property | Measured |
| --- | --- | --- |
| NCC[C@H](O)C(=O)N[C@@H]1C[C@H](N)[C@@H](O[C@H]2O[C@H](CN)CC[C@H]2N)[C@@H](N)[C@H]1O[C@H]1O[C@H](CO)[C@@H](O)[C@H](N)[C@H]1N | LD50 at 336 h | > 100 mg/kg |
| NC[C@@H]1CC[C@@H](N)[C@@H](O[C@H]2C[C@@H](O[C@H]3O[C@H](CO)[C@@H](O)[C@H](N)[C@H]3N)[C@H](N)C[C@@H]2N)O1 | LD50 at 336 h | 50 to 100 mg/kg |
| NC[C@@H]1CC[C@@H](N)[C@@H](O[C@H]2[C@H](O)[C@@H](O[C@H]3O[C@H](CO)[C@@H](O)[C@H](N)[C@H]3N)[C@H](N)C[C@@H]2N)O1 | LD50 at 336 h | > 100 mg/kg |
| NCC[C@H](O)C(=O)N[C@@H]1C[C@H](N)[C@@H](O[C@H]2O[C@H](CN)CC[C@H]2N)[C@H](O)[C@H]1O[C@H]1O[C@H](CO)[C@@H](O)[C@H](N)[C@H]1N | LD50 at 336 h | > 100 mg/kg |

The record that follows has no LD50 at 336 h shown yet.
Looking for the measured LD50 at 336 h of `NCC[C@H](O)C(=O)N[C@@H]1C[C@H](N)[C@@H](O[C@H]2O[C@H](CN)CC[C@H]2N)[C@@H](F)[C@H]1O[C@H]1O[C@H](CO)[C@@H](O)[C@H](N)[C@H]1N` , can you help?
> 100 mg/kg

----------
- Test system: Salmonella typhi T-63
- Test Protocol: MIC by standard serial dilution method on Muller-Hinton's agar
- Format: cell-based
- Particulars: Salmonella enterica, Table 3, 27° C., 18 hours
Listed below: MIC values for each entry.
All answers are understood in µg/mL, so give the number only.

Some compounds with recorded MIC:
| Compound | Measured |
| --- | --- |
| NC[C@@H]1CC[C@@H](N)[C@@H](O[C@H]2[C@H](O)[C@@H](O[C@H]3O[C@H](CO)[C@@H](O)[C@H](N)[C@H]3N)[C@H](N)C[C@@H]2N)O1 [Compound IIa, 2"-Amino-2"-deoxydibekacin] | 1.56 |
| NCC[C@H](O)C(=O)N[C@@H]1C[C@H](N)[C@@H](O[C@H]2O[C@H](CN)CC[C@H]2N)[C@H](O)[C@H]1O[C@H]1O[C@H](CO)[C@@H](O)[C@H](N)[C@H]1N [Compound Ia, 2"-Amino-2"-deoxyarbekacin] | 0.78 |
| NC[C@@H]1CC[C@@H](N)[C@@H](O[C@H]2C[C@@H](O[C@H]3O[C@H](CO)[C@@H](O)[C@H](N)[C@H]3N)[C@H](N)C[C@@H]2N)O1 [Compound IIb, 2"-Amino-5,2"-dideoxydibekacin] | 3.13 |

Continue with the compound presented below.
Quick one: MIC of NCC[C@H](O)C(=O)N[C@@H]1C[C@H](N)[C@@H](O[C@H]2O[C@H](CN)CC[C@H]2N)C[C@H]1O[C@H]1O[C@H](CO)[C@@H](O)[C@H](N)[C@H]1N [Compound Ib, 2"-Amino-5,2"-dideoxyarbekacin] ?
0.78
